The measurements presented in this section are drawn from paper PMC7826789.

Test system: ACVR2B
Details: Compound Concentration (nM):1000;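 further: KINOMEscan scanMAX binding as percent activity remaining versus control; lower means stronger binding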
PROPERTY: Percent Control (%)

1. CC(C)COC(=O)c1ccc2c(c1)/C(=C/Nc1ccc(S(N)(=O)=O)cc1)C(=O)N2 [GW416981X]; 100
2. CCc1ccc(Oc2nccc(-c3c(-c4ccc(F)cc4)ncn3C3CCNCC3)n2)cc1; 100
3. COc1cc(N2CCN(C(C)C)CC2)ccc1Nc1nc(Nc2ccc(F)cc2C(=O)NC[C@@H](O)CO)c2cc[nH]c2n1 [GSK1392956A]; 100
4. O=C(Nc1n[nH]c2nc(-c3ccc(O)cc3)c(Br)cc12)C1CC1; 79
5. Nc1ncnc2occ(-c3ccc(NC(=O)Nc4cc(C(F)(F)F)ccc4F)cc3)c12 [GW770249X]; 100
6. Cc1cc(O)cc(C)c1/C=C/c1cncc(C(N)=O)c1 [GW435821X]; 7.1
7. COc1cccc(-c2c[nH]c3c(N/N=C/c4ccncc4)ncnc23)c1 [GW814408X]; 71

----------
Tested on: TTK
Conditions: Compound Concentration (nM):1000
The following compounds are shown together with reported Percent Control values.
PROPERTY: Percent Control (%)

1) COc1ccc2cc(-c3c(-c4ccncc4)nc(-c4ccc(S(C)(=O)=O)cc4C)n3C)ccc2c1; 91
2) CCn1c(-c2nonc2N)nc2c(C#CC(C)(C)O)nc(OCCNC)cc21.Cl; 91
3) CC1=C(C(=O)Nc2ccc3[nH]ncc3c2)C(c2ccc(Cl)c(Cl)c2)CC(=O)N1 (stereo not shown) [GSK299115A]; 89
4) CCS(=O)(=O)c1ccc(OC)c(Nc2ncc(-c3cccc(OC)c3)o2)c1 [GW580509X]; 90

----------
The following compounds are shown together with reported Percent Control values.
Test system: MAP4K4
Conditions: Compound Concentration (nM):1000
PROPERTY: Percent Control (%)

1) COc1ccc2[nH]c3c4[nH]c5ccc(OC)cc5c4c4c(c3c2c1)C(=O)NC4=O [GW296115X]; 2.7
2) CCS(=O)(=O)c1ccc(OC)c(Nc2ncc(-c3cccc(F)c3)o2)c1 [GW621970X]; 100
3) O=C1Nc2ccc(C(=O)c3ccco3)cc2C1=Cc1cc(Cl)c(O)c(Cl)c1 [GW406108X]; 50

----------
System: FER
Details: Compound Concentration (nM):1000
The following molecules are shown together with reported Percent Control values.
PROPERTY: Percent Control (%)

1) Cl.c1ccc(Cc2nc3ccc(Nc4ncnc5ccccc45)cc3[nH]2)cc1 [GR269666A]; 88
2) COc1ccc2[nH]c3c4[nH]c5ccc(OC)cc5c4c4c(c3c2c1)C(=O)NC4=O [GW296115X]; 58
3) Cl.O=C(O[C@H]1CN[C@H](C#Cc2cc3ncnc(Nc4ccc5c(cnn5Cc5ccccc5)c4)c3s2)C1)N1CCOCC1 [GSK200398A]; 94
4) CCn1c(-c2nonc2N)nc2c(C#CC(C)(C)O)nc(OCCNC)cc21.Cl; 100
5) Cl.O=C(Nc1ccc(Oc2ccc3[nH]c(NC(=O)c4ccco4)nc3c2)cc1)Nc1cc(C(F)(F)F)ccc1F [GW683134A]; 92

----------
System: SRMS
Conditions: Compound Concentration (nM):1000
PROPERTY: Percent Control (%)

1) COc1cc2ncn(-c3cc(O[C@H](C)c4ccccc4Cl)c(C(N)=O)s3)c2cc1OC [GSK237701A]; 92
2) CC1=C(C(=O)Nc2ccc3[nH]ncc3c2)C(c2ccc(Cl)c(Cl)c2)CC(=O)N1 (centres unmarked) [GSK299115A]; 88
3) Cl.O=C(Nc1ccc(Oc2ccc3[nH]c(NC(=O)c4ccccc4)nc3c2)cc1)Nc1cc(C(F)(F)F)ccc1F [GW709042A]; 91
4) COC(=O)Nc1nc2ccc(Oc3ccc(NC(=O)Nc4cc(C(F)(F)F)ccc4F)cc3)cc2s1.Cl [GW693917A]; 92
5) Nc1ncnc2occ(-c3ccc(NC(=O)Nc4cc(C(F)(F)F)ccc4F)cc3)c12 [GW770249X]; 91
6) NS(=O)(=O)c1ccc(N/N=C2\C(=O)Nc3ccc(C(=O)NCCc4c[nH]cn4)cc32)cc1 [GW300660X]; 90
7) C/C(Nc1ccc(S(N)(=O)=O)cc1)=C1/C(=O)Nc2ccccc21 [GW335962X]; 91
8) Cl.O=C(O[C@H]1CN[C@H](C#Cc2cc3ncnc(Nc4ccc5c(cnn5Cc5ccccc5)c4)c3s2)C1)N1CCOCC1 [GSK200398A]; 92

----------
System: CAMK1D
Conditions: Compound Concentration (nM):1000
PROPERTY: Percent Control

1. COc1cc(N2CCN(C(C)C)CC2)ccc1Nc1nc(Nc2ccc(F)cc2C(=O)NC[C@@H](O)CO)c2cc[nH]c2n1 [GSK1392956A]; 40%
2. NS(=O)(=O)c1ccc(N/N=C2\C(=O)Nc3ccc(C(=O)NCc4ccncc4)cc32)cc1 [GW300657X]; 80%
3. CC(C)COC(=O)c1ccc2c(c1)/C(=C/Nc1ccc(S(N)(=O)=O)cc1)C(=O)N2 [GW416981X]; 100%
4. COc1ccc2cc(-c3c(-c4ccncc4)nc(-c4ccc(S(C)(=O)=O)cc4C)n3C)ccc2c1; 96%
5. Cl.O=C(Nc1ccc(Oc2ccc3[nH]c(NC(=O)c4ccccc4)nc3c2)cc1)Nc1cc(C(F)(F)F)ccc1F [GW709042A]; 97%
6. CN1CCN(C(=O)c2ccc(NC(=O)Nc3ccc(N(C)c4ccnc(Nc5ccc(CS(C)(=O)=O)cc5)n4)cc3)cc2)CC1.Cl [GW830263A]; 98%
7. NS(=O)(=O)c1ccc(N/N=C2\C(=O)Nc3ccc(-c4cnco4)cc32)cc1; 71%
8. Cl.c1ccc(Cc2nc3ccc(Nc4ncnc5ccccc45)cc3[nH]2)cc1 [GR269666A]; 100%

----------
System: ACVR2A
Details: Compound Concentration (nM):1000
The following compounds are shown together with reported Percent Control values.
PROPERTY: Percent Control (%)

1. Cl.O=C(Nc1ccc(Oc2ccc3[nH]c(NC(=O)c4ccco4)nc3c2)cc1)Nc1cc(C(F)(F)F)ccc1F [GW683134A]; 100
2. Cl.O=S1CCN(Cc2ccc(-c3ccc4ncnc(Nc5ccc(OCc6ccccc6)c(F)c5)c4c3)o2)CC1 [GW576924A]; 100
3. COc1cc(C)c(N(C)C(=O)CN(C)C)cc1Nc1nc(Nc2cccc(F)c2C(N)=O)c2cc[nH]c2n1; 100

----------
Tested on: CSNK1G3
Settings: Compound Concentration (nM):1000
The following molecules are shown together with reported Percent Control values.
PROPERTY: Percent Control (%)

1. CN1CCN(C(=O)c2ccc(NC(=O)Nc3ccc(N(C)c4ccnc(Nc5ccc(CS(C)(=O)=O)cc5)n4)cc3)cc2)CC1.Cl [GW830263A]; 100
2. CN(C)c1cc2c(Nc3ccc4c(cnn4Cc4ccccc4)c3)ncnc2cn1 [GW282974X]; 100
3. COc1cc(C=NNc2ncnc3c2cnn3-c2ccccc2)ccc1O [GW513184X]; 93
4. CC1=C(C(=O)Nc2ccc3[nH]ncc3c2)C(c2ccc(Cl)c(Cl)c2)CC(=O)N1 (centres unmarked) [GSK299115A]; 96
5. COc1cc2ncn(-c3cc(O[C@H](C)c4ccccc4Cl)c(C(N)=O)s3)c2cc1OC [GSK237701A]; 100

----------
Tested on: MAP4K3
Conditions: Compound Concentration (nM):1000
PROPERTY: Percent Control (%)

1. COc1cc2ncn(-c3cc(O[C@H](C)c4ccccc4Cl)c(C(N)=O)s3)c2cc1OC [GSK237701A]; 33
2. COc1ccc2c(-c3ccnc(Nc4cccc(OC(F)(F)F)c4)n3)cnn2n1 [GW810372X]; 100
3. O=C(Nc1n[nH]c2nc(-c3ccc(O)cc3)c(Br)cc12)C1CC1; 100
4. CCS(=O)(=O)c1ccc(OC)c(Nc2ncc(-c3cccc(OC)c3)o2)c1 [GW580509X]; 100
5. COc1cc(C)c(N(C)C(=O)CN(C)C)cc1Nc1nc(Nc2cccc(F)c2C(N)=O)c2cc[nH]c2n1; 100
6. COc1cc2ncnc(Nc3ccc4c(cnn4Cc4ccccc4)c3)c2cc1OC.Cl [GW282449A]; 95
7. Cl.c1ccc(Cc2nc3ccc(Nc4ncnc5ccccc45)cc3[nH]2)cc1 [GR269666A]; 100

----------
Test system: RIOK2
Settings: Compound Concentration (nM):1000
The following compounds are shown together with reported Percent Control values.
PROPERTY: Percent Control

1) C[C@@H](Oc1cc(-n2cnc3ccc(OC4CCN(C)CC4)cc32)sc1C(N)=O)c1ccccc1Cl [GSK579289A]; 91%
2) COc1ccc2[nH]c3c4[nH]c5ccc(OC)cc5c4c4c(c3c2c1)C(=O)NC4=O [GW296115X]; 89%
3) COc1ccc2cc(-c3c(-c4ccncc4)nc(-c4ccc(S(C)(=O)=O)cc4C)n3C)ccc2c1 [SB-633825]; 92%
